FYI, the data here is from PubChem BioAssay (EPA / NIEHS).

Read-out: Glutamate-cysteine ligase regulatory (GCLM), GCLM (gene 2730)
Test: LTEA_HepaRG_GCLM: Life Technologies and Expression Analysis (LTEA) Assay for Glutamate-cysteine ligase regulatory (GCLM) using HepaRG (AID 2283500)
Settings: mRNA level, 48 h; actives raise or lower the signal
Activity calls are given as the source filed them. Rule for the calls: active = hit-call score of the fitted dose curve at least 0.9, where 1 is the maximum; inactive = score below 0.9.
readout_type: outcome

>>> result("CCc1ccc(O)c(C(C)(C)C)c1")
"inactive"
>>> result("CCCCCCCC1CCC(=O)O1 (configuration not stated)")
"inactive"
>>> result("NC(=O)N(O)[C@@H]1COc2cc(OCc3ccccc3)ccc21")
"inactive"
>>> result("CCCCCCCC/C=C\\CCCCCCCC(=O)OC[C@@H](O)[C@H]1OC[C@H](O)[C@H]1O")
"inactive"
>>> result("COc1cc(C(C)C)c2c(c1)S(=O)(=O)N(COc1cc(=O)n3cccc(OCCN4CCCCC4)c3n1)C2=O")
"inactive"
>>> result("CC(C)CC(C)O (configuration not stated)")
"inactive"
>>> result("CCCCCOC(C)=O")
"inactive"
